Reference source: PubChem BioAssay AID1745844

system: rodent lifetime carcinogenesis bioassay, tumor incidence TD50; test: carcinogenic potency in animals, long-term in vivo studies, CPDB compilation (AID 1745844); details: rat; strain Fischer 344; males; in drinking water; site: esophagus; lesion: papilloma; dosed 48 weeks; study length 95 weeks
readout: TD50

### Prompt Return the recorded TD50 value; entry: O=NN(CCO)CCO
### Response 207 mg/kg/day

* * *

tested on: rodent lifetime carcinogenesis bioassay, tumor incidence TD50; test: carcinogenic potency in animals, long-term in vivo studies, CPDB compilation (AID 1745844); conditions: mouse; strain B6C3F1; females; oral dosing; site: liver; lesion: hepatoma; dosed 78 weeks; study length 78 weeks
readout: TD50 (mg/kg/day)
The figure you give is taken to be in mg/kg/day; do not add the unit.

### Prompt Answer with reported TD50 of NNCCO
### Response 4.77

* * *

tested on: rodent lifetime carcinogenesis bioassay, tumor incidence TD50; assay: carcinogenic potency in animals, long-term in vivo studies, CPDB compilation (AID 1745844); conditions: mouse; strain NZO/BlGd; females; in drinking water; site: stomach, squamous; lesion: several types; types named in the paper; dosed 32 weeks; study length 74 weeks
readout: TD50

### Prompt Specify TD50 for O=NN1CCCCCC1 and stop.
### Response 0.415 mg/kg/day

* * *

test system: rodent lifetime carcinogenesis bioassay, tumor incidence TD50; experiment: carcinogenic potency in animals, long-term in vivo studies, CPDB compilation (AID 1745844); conditions: mouse; strain B6C3F1; males; in feed; site: any site (literature study); lesion: one or several types; types not named; dosed 96 weeks; study length 96 weeks
readout: TD50 (mg/kg/day)
A number alone suffices; assume mg/kg/day.

### Prompt Would you please give the reported TD50 of O=C(O)C=Cc1ccc(O)c(O)c1 with rodent lifetime carcinogenesis bioassay, tumor incidence TD50?
### Response 3210

* * *

test system: rodent lifetime carcinogenesis bioassay, tumor incidence TD50; assay: carcinogenic potency in animals, long-term in vivo studies, CPDB compilation (AID 1745844); details: hamster; strain Not specified; females; in drinking water; site: thyroid gland; lesion: several types; types named in the paper; dosed 52 weeks; study length 52 weeks
readout: TD50

### Prompt Given Cc1cc(=O)[nH]c(=S)[nH]1 , respond with its TD50.
### Response 53.4 mg/kg/day

* * *

test system: rodent lifetime carcinogenesis bioassay, tumor incidence TD50; assay: carcinogenic potency in animals, long-term in vivo studies, CPDB compilation (AID 1745844); details: mouse; strain Charles River CD1; males; in feed; site: all sites; lesion: myeloid leukemia; dosed 93 weeks; study length 100 weeks
Activity calls are given as the source filed them. How the calls were made is not given here.
readout: TD50

### Prompt Give the measured TD50 for O=C1CN(N=Cc2ccc([N+](=O)[O-])o2)C(=O)N1
### Response 588 mg/kg/day (inactive)

* * *

tested on: rodent lifetime carcinogenesis bioassay, tumor incidence TD50; experiment: carcinogenic potency in animals, long-term in vivo studies, CPDB compilation (AID 1745844); conditions: mouse; strain B6C3F1; males; inhaled; site: lung; lesion: alveolar/bronchiolar adenoma + alveolar/bronchiolar carcinoma; dosed 100 weeks; study length 100 weeks
readout: TD50 (mg/kg/day)
API: value field is a number in mg/kg/day; no unit string.

### Prompt Name the recorded TD50 of the item CCCl in your answer.
### Response 9910

* * *

test system: rodent lifetime carcinogenesis bioassay, tumor incidence TD50; assay: carcinogenic potency in animals, long-term in vivo studies, CPDB compilation (AID 1745844); conditions: mouse; strain Charles River CD1; males; in feed; site: liver; lesion: several types; types named in the paper; dosed 52 weeks; study length 52 weeks
readout: TD50

### Prompt # lookup: rodent lifetime carcinogenesis bioassay, tumor incidence TD50 TD50, key = CCCCOCCOCCOCc1cc2c(cc1CCC)OCO2
### Response 229 mg/kg/day
